MIC: recorded values
Test system: Bacillus subtilis
procedure-text: Antibacterial activity against Bacillus subtilis ATCC 6633 after 24 hrs by broth microdilution method
Assay type: functional
setup-conditions: ATCC 6633, 24 h

Answered cases to consult:
sample-smiles	test-system	reported-property	obs-value
COc1cc([C@@H]2CC(=O)c3c(cc(O)c(C/C=C(\C)C/C=C/C(C)(C)O)c3O)O2)ccc1O	Bacillus subtilis	MIC	> 32 µg/mL
COc1cc([C@H]2Oc3cc(O)c(C/C=C(\C)CCC=C(C)C)c(O)c3C(=O)[C@@H]2O)ccc1O	Bacillus subtilis	MIC	4 µg/mL
COc1cc([C@@H]2CC(=O)c3c(cc(O)c(C/C=C(\C)CCC=C(C)C)c3O)O2)ccc1O	Bacillus subtilis	MIC	8 µg/mL

Q: Give MIC for CC(C)=CCC/C(C)=C/Cc1c(O)cc2c(c1O)C(=O)C[C@@H](c1ccc(O)c(O)c1)O2
Ans: 4 µg/mL

Q: // Input: CC(C)=CCC/C(C)=C/Cc1c(O)cc2c(c1O)C(=O)C[C@@H](c1ccc(O)cc1)O2 . Output its MIC only.
Ans: 4 µg/mL

Q: Report MIC, nothing else, for this compound: O=C(O)c1cn(C2CC2)c2cc(N3CCNCC3)c(F)cc2c1=O
Ans: 2 µg/mL

Q: Identify measured MIC corresponding to COc1cc([C@@H]2CC(=O)c3c(cc(O)c(C/C=C(\C)CCC=C(C)C)c3O)O2)cc(OC)c1O
Ans: 4 µg/mL

Q: Check the records and state MIC for COc1cc([C@@H]2CC(=O)c3c(cc(O)c(C/C=C(\C)CCC=C(C)C)c3O)O2)cc(O)c1O
Ans: 4 µg/mL

All values here come from ChEMBL document CHEMBL1149844.
